Target: pooled human IgG (human IgG1, 2, 3 and 4)
MEASURE NAME: Enzyme Activity Endpoint Assay (purified): Fab′2 (ng/µL)
I only need the number, in ng/µL, no unit after it.

Lab note: measured Enzyme Activity Endpoint Assay (purified): Fab′2 of PRT-610 (protein) MQITSVWTKGVTPLTPEQFRYNNEDVIHAPYLAHQGWYDITKAFDGKDNLLCGAATAGNMLHWWFDQNKTEIEAYLSKHPEKQKIIFNNQELFDLKAAIDTKDSQTNSQLFNYFRDKAFPNLSARQLGVMPDLVLDMFINGYYLNVFKTQSTDVNRPYQDKDKRGGIFDAVFTRGDQTTLLTARHDLKNKGLNDISTIIKQELTEGRALALSHTYANVSISHVINLWGADFNAEGNLEAIYVTDSDANASIGMKKYYVGINAHGHVAISAYKIEGENIGAQVLGLFTLSSGKDIWQKLSLEHHHHHH was 688

Lab note: measured Enzyme Activity Endpoint Assay (purified): Fab′2 of PRT-490 (protein) MVTSVWTKGVTPPTDFIYGEDVLHAPYKAGQGWYDITKTFNGKDNLLCGAATAGNMLHWWFDQNKEQIENYLKKHPEKQKIIFNNQELFDLKAAIDTKDSQLDSKLFEYFKEKAFPYLSTKHLGVFPDHVIDMFINGYRLSLTNHGPTPVKRGSKDKRGGIFDAVFTRGVQSKLLTNRHDFKEKTLKEISDLIKQELTEGKALGISHTYANVRINHVINLWGADFDAEGNLEAIYVTDSDTNASIGMKKYFVGVNSNGKVAISAKEIEEDNIGAQVLGLFTLSTGQDIWNQTNLEHHHHHH was 73

Lab note: measured Enzyme Activity Endpoint Assay (purified): Fab′2 of PRT-428 (protein) MTITSVWTKGVTPPTPEDFRYNNEDVLHAPYVANQGWYDITKTFDGKDNLLCGAATAGNMLHWWFDQNKEEIERYLKKHPEKQKIIFNNQELFDVKAAIDTKDSQTNSKLFNYFRDKAFPNLSARQLGVMPDLVLDMFINGYYLNLGKTQSTDVNRPYQDKDKRGGIFDAVFTRGDQTTLLTARHDLKNKGLNEISDLIKQELTEGKALALSHTYANVRINHVINLWGADFDAEGNLIAIYVTDSDTNASIGMKKYFVGVNANGKVAISAKKIEGDNIGAQVLGLFTLSTGQDIWQKLS was 505

Lab note: measured Enzyme Activity Endpoint Assay (purified): Fab′2 of PRT-694 (protein) MTITSVWTKGVTPPTPEDFRYNNEDVLHAPYVANQGWYDITKTFDGKDNLLCGAATAGNMLHWWFDQNKEEIERYLKKYPEKQKIIFNNQELFDVRAAINTKDSQTNSKLFNYFRDKAFPNLSARQLGVMPDLVLDMFINGYYLNLGKTQSTDVNRPYQDKDKRGGIFDAVFNRGDQTTLLTARHDLKNKGLNEISDLIKQELSSGKALALSHTYANVRINHVINLWGADFDAEGNLIAIYVTDSDANSNIGMKKYKVGVNANGKVAISAKKIEGDNIGAQVLGLFTLSTGQDIWQKLSLEHHHHHH was 541
